# test.target: Thymidylate synthase (Mus musculus)
# Sequence (P07607 whole entry): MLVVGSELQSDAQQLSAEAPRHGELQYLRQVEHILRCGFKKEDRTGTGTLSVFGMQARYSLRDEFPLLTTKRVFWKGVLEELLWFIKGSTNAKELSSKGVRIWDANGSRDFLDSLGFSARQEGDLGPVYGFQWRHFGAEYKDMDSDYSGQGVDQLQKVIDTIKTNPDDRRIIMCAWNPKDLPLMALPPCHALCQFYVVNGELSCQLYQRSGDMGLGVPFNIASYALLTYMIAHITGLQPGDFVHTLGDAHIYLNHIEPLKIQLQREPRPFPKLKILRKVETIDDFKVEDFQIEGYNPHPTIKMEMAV
# assay.overview: Inhibition of cellular thymidylate synthase activity of murine leukemia cell line (L1210) in permeabilised cells.
# Type: cell-based
test.readout: IC50 (µM)
Answers are plain numbers, in µM.

COC(=O)[C@H](Cc1ccccc1)NP(=O)(O)OCC1OC(n2cc(F)c(=O)[nH]c2=O)CC1O (stereo partly drawn): 5
O=c1[nH]c(=O)n([C@H]2C[C@H](O)[C@@H](CO)O2)cc1F: 59

Proceed to the following item.
COC(=O)[C@@H](NP(=O)(O)OC[C@H]1O[C@@H](n2cc(F)c(=O)[nH]c2=O)C[C@@H]1O)C1C=Nc2ccccc21 (stereo partly drawn) yielded IC50 of 2.3

---

# Tested on: L929
# assay.overview: In vitro cytotoxicity of compounds were determined on mouse fibroblast (L929 TK-).
# Format: functional, cell-based
For each of the compounds below, state its pIC50.
Numbers only, as −log10 of the molar value.

Reference set, count: 2
O=c1[nH]c(=O)n([C@H]2C[C@H](O)[C@@H](CO)O2)cc1F: 5.11
O=c1[nH]c(=O)n([C@H]2C[C@H](O)[C@@H](COP(=O)(O)O)O2)cc1F [5-FLUORODEOXYURIDYLATE]: 5.17

Proceed to the following item.
COC(=O)[C@H](Cc1ccccc1)NP(=O)(O)OCC1OC(n2cc(F)c(=O)[nH]c2=O)CC1O (stereo partly drawn) yielded pIC50 of 3.70

---

# System: L1210
# assay.overview: In vitro cytotoxicity of compounds were determined on murine leukemia cell line (L1210).
# Format: functional, cell-based
# test.context: Mus musculus
test.readout: IC50 (nM)
Give bare numbers, in nM.

Reference set, count: 3
O=c1[nH]c(=O)n([C@H]2C[C@H](O)[C@@H](COP(=O)(O)O)O2)cc1F [5-FLUORODEOXYURIDYLATE]: 15
COC(=O)[C@@H](NP(=O)(O)OC[C@H]1O[C@@H](n2cc(F)c(=O)[nH]c2=O)C[C@@H]1O)C1C=Nc2ccccc21 (some centres undefined): 400
O=c1[nH]c(=O)n([C@H]2C[C@H](O)[C@@H](CO)O2)cc1F: 12

Proceed to the following item.
COC(=O)[C@H](Cc1ccccc1)NP(=O)(O)OCC1OC(n2cc(F)c(=O)[nH]c2=O)CC1O (some centres undefined) yielded IC50 of 410

---

# test.target: Thymidylate synthase (Mus musculus)
# assay.overview: Inhibition of cellular thymidylate synthase activity of mouse fibroblast (L929 TK-) in permeabilised cells.
# Type: cell-based
test.readout: pIC50
Give bare numbers, as −log10 of the molar value.

O=c1[nH]c(=O)n([C@H]2C[C@H](O)[C@@H](CO)O2)cc1F yielded pIC50 of 4.96

---

# test.target: Thymidylate synthase (Mus musculus)
# assay.overview: Inhibition of cellular thymidylate synthase activity of mouse fibroblast (L929 TK-) in permeabilised cells
# Assay type: cell-based
test.readout: pIC50
Answers are plain numbers, as −log10 of the molar value.

COC(=O)[C@H](Cc1ccccc1)NP(=O)(O)OCC1OC(n2cc(F)c(=O)[nH]c2=O)CC1O (some centres not stated) yielded pIC50 of 5.96

---

# test.target: Thymidylate synthase (Mus musculus)
# assay.overview: Inhibition of cellular thymidylate synthase activity of mouse fibroblast (L929 TK-) in intact cells.
# Format: cell-based
For each of the molecules below, state its IC50.
Numbers only, in µM.

O=c1[nH]c(=O)n([C@H]2C[C@H](O)[C@@H](CO)O2)cc1F: 7.3

Proceed to the following item.
COC(=O)[C@@H](NP(=O)(O)OC[C@H]1O[C@@H](n2cc(F)c(=O)[nH]c2=O)C[C@@H]1O)C1C=Nc2ccccc21 (stereo partly drawn) yielded IC50 of 0.67
